Data provenance is PubChem BioAssay.

target: Torsin-1A (Homo sapiens); experiment: TOR1A wild-type binding on microarray – cell lysate, small-molecule microarray, lysate, 635/667 nm, primary screen (AID 1149); details: COS7 hTOR1A-WT lysate, 635 nm fluorescence, higher = more signal
Please enter Fulfilled where composite z-score is greater than or equal to 0.2, and Not fulfilled where it is lower.

>>> class("CCCNC(=O)[C@@]1(Sc2ccc(C)cc2)CC(=O)N(Cc2ccccc2C(F)(F)F)[C@@H]1c1ccc(CO)cc1I")
"Fulfilled"
>>> class("CCOC(=O)[C@H]1C/C=C/C[C@H](C(=O)OCC)C(=O)O[C@H]2[C@@H](OC)O[C@H](CO)[C@@H](OC(=O)c3ccc(Br)cc3)[C@@H]2OC1=O")
"Fulfilled"
>>> class("[N-]=[N+]=NCc1ccccc1[C@H]1OC(c2ccc(OCCCO)cc2)=N[C@@]1(Cc1ccccc1)C(=O)N1CCCCC1")
"Not fulfilled"

q: Identify whether the reported composite z-score of the following compound is 0.2 or greater: COCCCNC(=O)[C@@]1(Sc2ccc(C)cc2)CC(=O)N(Cc2ccccc2Cl)[C@@H]1c1ccc(CO)cc1
a: Fulfilled

q: Identify whether the reported composite z-score of the following compound is 0.2 or greater: COCC(=C=CC[C@H](O)c1ccccc1OCCO)CCO
a: Fulfilled

q: Identify whether the reported composite z-score of the following compound is 0.2 or greater: O=C1O[C@@H](c2ccccc2)[C@@H](c2ccccc2)N2[C@@H](c3ccccc3OCCO)[C@]3(C(=O)Nc4ccccc43)[C@@H](C(=O)O)[C@H]12
a: Fulfilled

q: Identify whether the reported composite z-score of the following compound is 0.2 or greater: COC(=O)C(CC#Cc1ccc2c(c1)[C@]1(C(=O)N2)[C@H](c2ccccc2OCCO)N2[C@H](c3ccccc3)[C@H](c3ccccc3)OC(=O)[C@H]2[C@@H]1C(=O)O)C(=O)OC
a: Not fulfilled

q: Identify whether the reported composite z-score of the following compound is 0.2 or greater: Cc1ccc(S[C@]2(C(=O)O)CC(=O)N(Cc3ccccc3C(F)(F)F)[C@@H]2c2ccc(CO)cc2I)cc1
a: Not fulfilled

* * *

biological target: Albumin (Bos taurus) (UniProt P02769); assay: compounds binding labelled BSA control protein – biochemical, small-molecule microarray, Alexa647 label, 635/667 nm fluorescence, artefact control for SMM control protein annotation, profiling panel (AID 1118); conditions: BSA-A647 binding, fluorescence 635 nm, higher = more signal;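 further: score merges 667 nm emission intensity and signal-to-noise per printed compound spot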
Sequence (P02769 whole entry, looked up): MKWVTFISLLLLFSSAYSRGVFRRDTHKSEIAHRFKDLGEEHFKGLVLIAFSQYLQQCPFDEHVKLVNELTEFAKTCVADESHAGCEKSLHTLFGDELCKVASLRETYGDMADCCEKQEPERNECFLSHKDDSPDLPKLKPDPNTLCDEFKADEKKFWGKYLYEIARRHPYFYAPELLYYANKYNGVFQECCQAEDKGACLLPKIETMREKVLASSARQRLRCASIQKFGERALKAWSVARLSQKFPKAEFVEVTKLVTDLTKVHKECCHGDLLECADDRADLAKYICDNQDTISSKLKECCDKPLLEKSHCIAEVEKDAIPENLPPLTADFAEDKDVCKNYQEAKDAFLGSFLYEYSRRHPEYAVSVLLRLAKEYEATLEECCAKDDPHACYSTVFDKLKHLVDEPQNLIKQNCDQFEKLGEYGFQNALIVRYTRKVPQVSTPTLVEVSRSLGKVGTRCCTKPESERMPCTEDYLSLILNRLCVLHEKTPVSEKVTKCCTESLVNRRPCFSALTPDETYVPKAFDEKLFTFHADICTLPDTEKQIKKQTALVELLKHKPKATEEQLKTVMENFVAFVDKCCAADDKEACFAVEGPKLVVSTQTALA
Please enter Yes where composite z-score is greater than or equal to -0.3, and No where it is lower.

q: Identify whether the reported composite z-score of the following molecule is -0.3 or greater: COc1ccccc1CN1C(=O)c2ccccc2[C@@H](C(=O)NCc2ccccc2)[C@@H]1c1ccc(CO)cc1
a: Yes

q: Identify whether the reported composite z-score of the following molecule is -0.3 or greater: CC(c1ccccc1)C(O)C1C=CC2C(=O)N(c3ccccc3)C(=O)C2N1Nc1ccccc1 (stereo unspecified)
a: Yes

q: Identify whether the reported composite z-score of the following molecule is -0.3 or greater: COC(=O)[C@@]1(Cc2ccc(F)cc2)[C@H]2c3cc(C(=O)N(C)C)n(Cc4cc(C)n(C)n4)c3C[C@H]2CN1C(=O)c1ccccc1
a: Yes

q: Identify whether the reported composite z-score of the following molecule is -0.3 or greater: CCCNC(=O)[C@@]1(Sc2ccc(C)cc2)CC(=O)N(Cc2ccccc2C(F)(F)F)[C@@H]1c1ccc(CO)cc1I
a: Yes

q: Identify whether the reported composite z-score of the following molecule is -0.3 or greater: [N-]=[N+]=Nc1ccccc1C[C@@]1(C(=O)N2CCCCC2)N=C(c2ccc(OCCCO)cc2)O[C@@H]1c1ccccc1
a: Yes

q: Identify whether the reported composite z-score of the following molecule is -0.3 or greater: CCCCC(=C=CC[C@@H](O)c1ccc(CO)o1)CCO
a: Yes

q: Identify whether the reported composite z-score of the following molecule is -0.3 or greater: CCCC(=O)N(CCc1c[nH]c2ccccc12)[C@@H]1CC(C(=O)NCCO)=C[C@H](Oc2c(I)cc(CO)cc2OC)[C@H]1O
a: Yes

q: Identify whether the reported composite z-score of the following molecule is -0.3 or greater: COc1ccccc1CN1C(=O)c2ccccc2[C@@]2(Cc3ccccc3N(CCCN(C)C)C2=O)[C@@H]1c1ccc(CO)cc1
a: No

q: Identify whether the reported composite z-score of the following molecule is -0.3 or greater: COC(=O)[C@@]1(CCC(=O)OC(C)(C)C)N=C(c2ccc(OCCCO)cc2)O[C@H]1c1ccccc1
a: No

q: Identify whether the reported composite z-score of the following molecule is -0.3 or greater: COc1ccc(CCNC(=O)[C@@]2(C)c3ccccc3C(=O)N(c3ccc(C)cn3)[C@H]2c2ccc(CO)cc2)cc1
a: Yes

q: Identify whether the reported composite z-score of the following molecule is -0.3 or greater: NC(=O)[C@@H]1[C@H]2C(=O)O[C@H](c3ccccc3)[C@H](c3ccccc3)N2[C@H](c2ccc(O)cc2)[C@@]12C(=O)Nc1ccc(C#CC3=CCCCC3)cc12
a: Yes

q: Identify whether the reported composite z-score of the following molecule is -0.3 or greater: O=C1OCCC=C[C@H]2OC34C=CCN(c5ccc(Cl)cc5)C(=O)[C@H]3N(CCCO)C(=O)[C@@H]4C12 (stereo partly specified)
a: No

q: Identify whether the reported composite z-score of the following molecule is -0.3 or greater: O=C1O[C@H](c2ccccc2)[C@H](c2ccccc2)N2[C@H]1[C@@H](C(=O)NC[C@H](O)c1ccccc1)[C@]1(C(=O)Nc3ccccc31)[C@H]2c1ccc(O)cc1
a: Yes

q: Identify whether the reported composite z-score of the following molecule is -0.3 or greater: CN(C)CCCCCCNC(=O)[C@@H]1C[C@@H]2C(=O)N[C@@H](CCCC[N+](C)(C)C)C(=O)N2[C@@H]1c1ccc(O)cc1
a: No

q: Identify whether the reported composite z-score of the following molecule is -0.3 or greater: CC(C)Cc1ccc(CN2CC[C@@H](N)C2)cc1
a: Yes

q: Identify whether the reported composite z-score of the following molecule is -0.3 or greater: COc1ccc([C@H]2C[C@H]3C(Br)=C[C@@]2(CO)C(=O)[C@]32CO2)cc1
a: No

* * *

target: NADPH oxidase 4 (Homo sapiens); experiment: compounds shifting NOX4 Amplex Red fluorescence – cell-based, HEK293-NOX4, tetracycline-induced, NOX inhibitor project, primary screen (AID 1160); details: HEK293-NOX4, Amplex Red H2O2 fluorescence, 45 min; higher = more signal, called active from +8 up or from −8 down
Hi there, I'd appreciate the recorded z-score for every entry that follows.
Give bare numbers.

Examples from the recorded data:
>>> value_observed("[N-]=[N+]=NCc1ccccc1[C@@H]1OC(c2ccc(OCCCO)cc2)=N[C@]1(CCS(=O)(=O)c1ccccc1)C(N)=O")
1.13
>>> value_observed("COc1ccc(C#Cc2ccc3c(c2)[C@]2(C(=O)N3)[C@H](c3ccc(O)cc3)N3[C@H](c4ccccc4)[C@H](c4ccccc4)OC(=O)[C@H]3[C@@H]2C(=O)N2CCc3cc(OC)c(OC)cc3C2)cc1")
0.579
>>> value_observed("C=C(/C(=C/C[C@H](OC(C)=O)c1ccc(OCCO)cc1)c1cc(C(=O)OC)ccc1OC)C(C)C")
0.217

For each of the compounds below, state z-score.
1. COCCOC(=O)N1C(=O)[C@@]2(c3cc(C#Cc4ccc(OC)cc4)ccc31)[C@H](c1ccc(O)cc1)N1[C@H](c3ccccc3)[C@H](c3ccccc3)OC(=O)[C@H]1[C@@H]2C(=O)Nc1nc2ccccc2s1
2. C#CCN(C/C=C/c1ccccc1)[C@H](CO)c1ccccc1
3. O=C1O[C@H](c2ccccc2)[C@H](c2ccccc2)N2[C@H]1[C@@H](C(=O)N1CCN(c3ncccn3)CC1)[C@]1(C(=O)Nc3ccc(C#CC4=CCCCC4)cc31)[C@H]2c1ccccc1OCCO
4. [N-]=[N+]=Nc1ccccc1C[C@]1(C(=O)NCC(O)CO)N=C(c2ccc(OCCCO)cc2)O[C@H]1c1ccccc1 (stereo not given in full)
5. O=C(O)[C@H](Cc1ccccc1)n1cc(-c2ccccc2)nn1
6. C=C(CCCC)/C(=C/C[C@@H](OC(C)=O)c1ccccc1OCCO)c1cc(C(=O)OC)ccc1OC

a:
1: 0.183; 2: 0.04; 3: 0.867; 4: 0.567; 5: 0.283; 6: 0.282

For each of the compounds below, state z-score.
1. COCC(=C=CC[C@@H](O)c1ccc(OCCO)cc1)C[C@@H](O)c1ccccn1
2. COC(=O)[C@@]1(Cc2ccc(OC)cc2)[C@H]2c3cc(C(=O)N4CCCC4)n(CCCNc4ncc(C(F)(F)F)cc4Cl)c3C[C@H]2CN1C(=O)c1ccccc1

a:
1: 0.654; 2: 0.577

For each of the compounds below, state z-score.
1. COC(=O)[C@@]1(Cc2ccc(F)cc2)[C@H]2c3cc(C(=O)N(C)C)n(Cc4cc(C)n(C)n4)c3C[C@H]2CN1C(=O)c1ccccc1
2. COC(=O)C(CC#Cc1ccc2c(c1)[C@]1(C(=O)N2)[C@H](c2ccccc2OCCO)N2[C@H](c3ccccc3)[C@H](c3ccccc3)OC(=O)[C@H]2[C@@H]1C(N)=O)C(=O)OC
3. CC(=O)n1cc(C(O)C2C=CC3C(=O)NC(=O)C3N2Nc2ccccn2)c2ccccc21 (stereo not given)
4. CO[C@H]1O[C@H](CO)[C@@H](OC(=O)Nc2cccc(F)c2)[C@H](OC(=O)Nc2ccccc2)[C@H]1OC(=O)Nc1ccccc1

a:
[-0.354, 0.696, -2.41, -1.09]

For each of the compounds below, state z-score.
1. CC1CC/C=C\[C@H]2OC34C=CCN(c5ccc6ccccc6c5)C(=O)[C@H]3N(CCO)C(=O)[C@@H]4C2C(=O)O1 (stereo not given in full)
2. C#CCOc1ccc(C[C@@H](C(=O)OC)N(CC#C)[C@@H](/C=C/C2CC2)[C@H](O)Cc2ccccc2)cc1
3. CC(C)NC(=O)[C@@H]1c2ccccc2C(=O)N(C(C)C)[C@H]1c1ccc(CO)cc1

a:
[1.04, 0.763, 0.614]

For each of the compounds below, state z-score.
1. O=C1O[C@@H](c2ccccc2)[C@@H](c2ccccc2)N2[C@@H](c3ccccc3OCCO)[C@]3(C(=O)Nc4ccccc43)[C@@H](C(=O)O)[C@H]12
2. C=C(C(=O)CC[C@H](OC(C)=O)c1ccccc1OCCO)C(C)C
3. COC(=O)C[C@H]1O[C@@H](CCc2ccccc2)[C@@H](C)[C@@H]1[Si](C)(C)c1ccc(OC)cc1
4. CCOC(=O)C1=CC[C@@H](c2ccccc2)N(S(=O)(=O)c2ccc(C)cc2)[C@H]1c1ccc(CC)cc1
5. COc1cc(CO)cc(I)c1O[C@H]1C=C(C(=O)NCCO)C[C@@H](N(C(=O)c2cc3ccccc3oc2=O)C2CCCCCC2)[C@@H]1O
6. C=CC1c2cc(O)c(OC)cc2CCN1Cc1cccc(OC(F)(F)F)c1 (stereo not given)

a:
[0.516, -2.22, -0.0337, 0.029, 0.881, -2.9]

For each of the compounds below, state z-score.
1. CCC(CC)C(O)C1C=CC2C(=O)N(c3ccccc3)C(=O)C2N1Nc1ccccc1 (stereo not given)
2. COC(=O)[C@@]1(Cc2ccc(OC)cc2)[C@H]2c3cc(C(=O)N4CCCC4)n(CCSCCO)c3C[C@H]2CN1C(=O)c1ccccc1

a:
1: -3.29; 2: -1.04

For each of the compounds below, state z-score.
1. C[C@H]1C2[C@H](Cc3ccccc3)NC(=O)[C@]23C(=O)NCC(=O)N2CCC[C@H]2C(=O)NC/C=C/CCC/C=C/C3[C@@H]2O[C@]12C (stereo not given in full)
2. C=CC[C@@]1(C(=O)N2CCCCC2)N=C(c2ccc(OCCCO)cc2)O[C@@H]1c1ccccc1CN=[N+]=[N-]
3. O=C1OCC=C[C@H]2OC34C=CCN(CCN5CCOCC5)C(=O)[C@H]3N(CCO)C(=O)[C@@H]4[C@@H]12 (stereo not given in full)
4. CCOc1ccc(N2C(=O)CSC2c2cccc([N+](=O)[O-])c2)cc1 (stereo not given)

a:
-0.66
1.43
0.628
-0.214
